This listing pairs compounds with measured TGI.
test system: SNB-75 CNS; experiment: NCI tumour cell line growth inhibition, 48 h
Answer with a number only, understood to be in µM.

// known answers, use as guide
O=C1C=Cc2c(-c3ccccc3)oc3cccc1c23: 81.8
O=C(CCl)Nc1ccc2c(Nc3cc(O)ccc3Cl)ncnc2c1: 6.56
Cc1cc2c(C(C)C)c(O)c(O)c(C=NCC3CCCN4CCCCC34)c2cc1-c1cc2c(C=NCC3CCCN4CCCCC34)c(O)c(O)c(C(C)C)c2cc1C (stereo unspecified): 31.3
O=[N+]([O-])c1ccc(/C(=C\c2ccccc2)Cn2ccnc2)cc1: 86.4

## Task Give TGI for the following compound: CCOC(=O)C(C(N)=O)c1nc2cc([N+](=O)[O-])ccc2nc1/C=C(\O)c1ccccc1 (stereo unspecified)
## Result 43.1

## Task Give TGI for the following compound: CCN(CCCl)CCCCNc1c2ccccc2nc2ccc(OC)cc12
## Result 2.14

## Task Give TGI for the following compound: CCC(=O)Oc1cc(/C=C/C(=O)O[C@H]2C[C@H]3CN4CCc5c([nH]c6cc(OC)ccc56)[C@@H]4C[C@@H]3[C@@H](C(=O)OC)[C@@H]2OC)ccc1OC
## Result 26.8

## Task Give TGI for the following compound: COc1cc2c3c(n(CCCNCCCNCCCn4c5c(c6cc(OC)c(OC)cc6c4=O)C(=O)c4ccccc4-5)c(=O)c2cc1OC)-c1ccccc1C3=O
## Result 62.1

## Task Give TGI for the following compound: O=S(=O)(Cc1nc2ccccc2s1)c1nc2ccccc2s1
## Result 41.3

## Task Give TGI for the following compound: C=C[C@@]1(C)CC2(C=C(CO)C(O)O2)Oc2c1c(=O)oc1cccc(C)c21 (stereo partly specified)
## Result 28.8

###

tested on: MDA-MB-231 breast; assay: NCI tumour cell line growth inhibition, 48 h
# label = true if TGI >= 30 µM else false

COc1cc(C2CC(C)(N3CCCC3)Oc3cc4c(cc32)OCO4)cc(OC)c1OC (stereo not given): false

## Task Decide: is the reported value of TGI for Cc1ccc(-n2c(C)n[nH]c2=O)cc1 equal to or greater than 30 µM?
## Result true

## Task Decide: is the reported value of TGI for CC(=O)OCCOCn1cc(C=O)c2ccccc21 equal to or greater than 30 µM?
## Result true

## Task Decide: is the reported value of TGI for COc1ccc2c(c1)-c1c(c3cc(OC)ccc3n1CCN1CCOCC1)CC2 equal to or greater than 30 µM?
## Result true

## Task Decide: is the reported value of TGI for CC1=C2[C@H]3OC(=O)[C@@H](C)[C@@H]3CC[C@@]2(C)C=CC1=O equal to or greater than 30 µM?
## Result true

## Task Decide: is the reported value of TGI for N#CCCN1C/C(=C/c2ccccc2)C(=O)/C(=C/c2ccccc2)C1 equal to or greater than 30 µM?
## Result false

## Task Decide: is the reported value of TGI for Cc1cccc(N2C(=O)C3c4[nH]c5ccccc5c4C4CCC(C(C)(C)C)CC4C3C2=O)c1C (stereo not given) equal to or greater than 30 µM?
## Result true

## Task Decide: is the reported value of TGI for Cc1cc(C)n(-c2nc3ccccc3c(=O)[nH]2)n1 equal to or greater than 30 µM?
## Result false

## Task Decide: is the reported value of TGI for CCC(=O)Oc1cc(/C=C/C(=O)O[C@H]2C[C@H]3CN4CCc5c([nH]c6cc(OC)ccc56)[C@@H]4C[C@@H]3[C@@H](C(=O)OC)[C@@H]2OC)ccc1OC equal to or greater than 30 µM?
## Result false
